Experiment: Fraction unbound in rat plasma
Assay type: ADME, cell-free
test-readout: fraction unbound

A = N#Cc1ccc(S(=O)(=O)NCC[C@H](N)COc2ccc(C#N)c(F)c2)c(C(F)(F)F)c1
B = C[C@](N)(CCNS(=O)(=O)c1ccc(C#N)cc1C(F)(F)F)COc1ccc(C#N)c(F)c1
C = N#Cc1ccc(OC[C@@H](N)CCNS(=O)(=O)c2ccc(Cl)cc2Cl)cc1F
D = N#Cc1ccc(N)c(OC[C@@H](N)CCNS(=O)(=O)c2ccc(Cl)cc2Cl)c1
Rank by fraction unbound (largest to smallest). List each label, following the requested order.
B, D, A, C

====

Molecular target: Transient receptor potential cation channel subfamily V member 4 (Homo sapiens, UniProt Q9HBA0)
Sequence (Q9HBA0 whole entry): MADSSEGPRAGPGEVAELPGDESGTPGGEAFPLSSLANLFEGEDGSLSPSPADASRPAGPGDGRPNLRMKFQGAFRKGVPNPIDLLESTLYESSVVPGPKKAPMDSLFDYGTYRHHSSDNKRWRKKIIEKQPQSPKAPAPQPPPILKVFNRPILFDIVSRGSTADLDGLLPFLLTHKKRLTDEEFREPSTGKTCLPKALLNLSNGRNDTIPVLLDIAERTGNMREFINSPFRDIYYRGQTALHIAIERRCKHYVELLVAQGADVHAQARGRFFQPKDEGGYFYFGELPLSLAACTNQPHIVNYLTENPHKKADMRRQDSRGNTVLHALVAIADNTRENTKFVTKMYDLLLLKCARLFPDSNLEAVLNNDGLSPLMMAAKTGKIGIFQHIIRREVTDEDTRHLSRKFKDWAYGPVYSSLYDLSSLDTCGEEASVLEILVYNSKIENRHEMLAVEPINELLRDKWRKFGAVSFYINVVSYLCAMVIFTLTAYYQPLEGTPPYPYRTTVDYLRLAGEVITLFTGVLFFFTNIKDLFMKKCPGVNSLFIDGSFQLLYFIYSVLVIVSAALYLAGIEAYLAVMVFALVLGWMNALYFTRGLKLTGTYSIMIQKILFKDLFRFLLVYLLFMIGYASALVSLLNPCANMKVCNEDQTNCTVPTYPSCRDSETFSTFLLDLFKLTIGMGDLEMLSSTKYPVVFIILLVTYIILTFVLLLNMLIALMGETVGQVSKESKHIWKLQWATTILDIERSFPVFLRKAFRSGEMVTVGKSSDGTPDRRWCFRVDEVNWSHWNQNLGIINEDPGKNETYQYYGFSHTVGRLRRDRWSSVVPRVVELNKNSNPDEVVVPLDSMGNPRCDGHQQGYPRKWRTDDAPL
Test: Antagonist activity at human TRPV4 expressed in BHK or HEK MSR2 cells assessed as inhibition of TRPV4 agonist GSK634775 (EC80)-induced response incubated for 10 mins
pIC50: −log10 of the molar value.
test-readout: pIC50

NC(CCNS(=O)(=O)c1ccc(Cl)cc1Cl)COc1cccc(Cl)c1 (stereo not given)
4.90
N#Cc1ccc(OCC(N)CCNS(=O)(=O)c2ccccc2)cc1F (racemic)
4.70
N#Cc1ccc(OC[C@@H](N)CCNS(=O)(=O)c2ccccc2OC(F)(F)F)cc1F
6.20
COc1ccccc1S(=O)(=O)NCC[C@H](N)COc1ccc(C#N)c(F)c1
5.10
N#Cc1ccc(OCC(N)CCNS(=O)(=O)c2cccc(Cl)c2)cc1F (racemic)
4.90

I = CN(CCC(O)COc1ccc(C#N)c(F)c1)S(=O)(=O)c1ccc(Cl)cc1Cl (racemic)
II = N#Cc1ccc(OCC2(O)CCN(S(=O)(=O)c3ccc(Cl)cc3Cl)CC2)cc1F
III = N#Cc1ccc(OC[C@@H](N)CCNS(=O)(=O)c2ccccc2C(F)(F)F)cc1F
IV = N#Cc1ccc(OC[C@@H](N)CCNS(=O)(=O)c2ccc(C(F)(F)F)cc2)cc1F
rank_up(items): orders items by reported pIC50 in ascending numerical order. List each label, following the requested order.
I, IV, II, III
(I: 5.00, IV: 6.20, II: 7.00, III: 7.40)

====

Assay: Dose normalized AUC in orally dosed rat
Type: ADME, organism-based
Conditions: in vivo, po
test-readout: AUC/dose (µg·h/mL)

N#Cc1ccc(S(=O)(=O)NCC[C@H](N)COc2ccc(C#N)c(F)c2)c(C(F)(F)F)c1
3.7

1 = N#Cc1ccc(OC[C@@H](N)CCNS(=O)(=O)c2ccc(Cl)cc2Cl)cc1F
2 = N#Cc1ccc(N)c(OC[C@@H](N)CCNS(=O)(=O)c2ccc(Cl)cc2Cl)c1
3 = C[C@](N)(CCNS(=O)(=O)c1ccc(C#N)cc1C(F)(F)F)COc1ccc(C#N)c(F)c1
Please rank these molecules by AUC/dose in descending order. List each label, following the requested order.
1, 3, 2
(1: 4.7 µg·h/mL, 3: 0.6 µg·h/mL, 2: 0.1 µg·h/mL)

====

Experiment: Cmax in rat
Type: ADME
Details: in vivo
test-readout: Cmax (ng/mL)
State just the number; it will be interpreted in ng/mL.

Form field: reported Cmax of `N#Cc1ccc(OC[C@@H](N)CCNS(=O)(=O)c2ccc(Cl)cc2Cl)cc1F`
930

====

Assay: Clearance in iv dosed rat
Assay type: ADME, organism-based
Conditions: in vivo
test-readout: clearance (mL/min/kg)

Use the examples below as a reference point.
N#Cc1ccc(N)c(OC[C@@H](N)CCNS(=O)(=O)c2ccc(Cl)cc2Cl)c1
38
N#Cc1ccc(OC[C@@H](N)CCNS(=O)(=O)c2ccc(Cl)cc2Cl)cc1F
4.3

P = N#Cc1ccc(S(=O)(=O)NCC[C@H](N)COc2ccc(C#N)c(F)c2)c(C(F)(F)F)c1
Q = C[C@](N)(CCNS(=O)(=O)c1ccc(C#N)cc1C(F)(F)F)COc1ccc(C#N)c(F)c1
Which gives the smaller clearance number: P or Q ? I would appreciate it if you answered with the label of your choice.
P

====

Biological target: Cytochrome P450 3A4 (Homo sapiens)
Sequence (P08684 whole entry): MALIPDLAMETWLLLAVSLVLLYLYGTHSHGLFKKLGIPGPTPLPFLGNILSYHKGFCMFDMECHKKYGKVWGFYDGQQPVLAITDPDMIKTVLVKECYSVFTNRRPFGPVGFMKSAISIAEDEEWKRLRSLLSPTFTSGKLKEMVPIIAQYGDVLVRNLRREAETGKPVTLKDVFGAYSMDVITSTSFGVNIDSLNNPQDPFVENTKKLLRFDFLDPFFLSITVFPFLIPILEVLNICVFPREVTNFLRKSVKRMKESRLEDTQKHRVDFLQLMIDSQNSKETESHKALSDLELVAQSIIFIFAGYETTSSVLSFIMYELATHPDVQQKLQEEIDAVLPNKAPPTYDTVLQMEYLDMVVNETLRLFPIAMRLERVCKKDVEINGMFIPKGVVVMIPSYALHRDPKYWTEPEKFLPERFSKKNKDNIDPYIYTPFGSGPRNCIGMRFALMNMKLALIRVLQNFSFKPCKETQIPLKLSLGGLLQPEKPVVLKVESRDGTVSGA
Test: Time dependent inhibition of recombinant human CYP3A4 expressed in bactosomes at 100 to 300 uM using 7-benzyloxy-4-(trifluoromethyl)-coumarin substrate in presence of NADPH-generating system incubated up to 15 mins by fluorescence based assay
Format: ADME
Conditions: recombinant enzyme, 0.25 h, dose 100-300 µM
test-readout: inhibition (INH)

N#Cc1ccc(OC[C@@H](N)CCNS(=O)(=O)c2ccc(Cl)cc2Cl)cc1F
Active
N#Cc1ccc(S(=O)(=O)NCC[C@H](N)COc2ccc(C#N)c(F)c2)c(C(F)(F)F)c1
Active
N#Cc1ccc(N)c(OC[C@@H](N)CCNS(=O)(=O)c2ccc(Cl)cc2Cl)c1
Active

====

Experiment: Solubility of the compound by CLND assay
Assay type: physicochemical
test-readout: solubility kinetic (µM)

A = N#Cc1ccc(OC[C@@H](N)CCNS(=O)(=O)c2ccc(Cl)cc2Cl)cc1F
B = N#Cc1ccc(OCC(O)CCNS(=O)(=O)c2ccc(Cl)cc2Cl)cc1F (centres undefined)
C = N#Cc1ccc(OCC2(O)CCN(S(=O)(=O)c3ccc(Cl)cc3Cl)CC2)cc1F
List by increasing solubility kinetic. List each label, following the requested order.
C, B, A

====

Experiment: Oral bioavailability in rat
Type: ADME, organism-based
Details: in vivo
test-readout: bioavailability (%)

N#Cc1ccc(OC[C@@H](N)CCNS(=O)(=O)c2ccc(Cl)cc2Cl)cc1F
85

1 = C[C@](N)(CCNS(=O)(=O)c1ccc(C#N)cc1C(F)(F)F)COc1ccc(C#N)c(F)c1
2 = N#Cc1ccc(N)c(OC[C@@H](N)CCNS(=O)(=O)c2ccc(Cl)cc2Cl)c1
1 or 2 : whose bioavailability is greater? I would appreciate it if you answered with the label of your choice.
1
